biological target: Cannabinoid receptor 2 (Homo sapiens, UniProt P34972); experiment: Agonist activity at human CB2 receptor expressing CHO cells co-expressing Galpha16 by calcium mobilization assay; assay type: functional, cell-based
Sequence (P34972 whole entry): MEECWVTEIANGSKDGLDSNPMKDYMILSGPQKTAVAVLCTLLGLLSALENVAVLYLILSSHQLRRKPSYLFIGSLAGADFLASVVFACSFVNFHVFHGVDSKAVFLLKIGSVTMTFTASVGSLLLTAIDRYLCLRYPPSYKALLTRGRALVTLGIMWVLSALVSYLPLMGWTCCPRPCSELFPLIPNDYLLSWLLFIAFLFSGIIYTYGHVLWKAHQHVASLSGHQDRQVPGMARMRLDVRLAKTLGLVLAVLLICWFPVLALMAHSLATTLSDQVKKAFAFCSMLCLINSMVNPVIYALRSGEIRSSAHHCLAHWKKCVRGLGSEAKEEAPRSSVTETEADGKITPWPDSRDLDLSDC
Rule for this label: satisfied means EC50 is less than 2 µM; not satisfied means EC50 is at least 2 µM.

Some entries whose results are on file:
# ENTRY SMILES, CLASSIFICATION
data = [
    ("CCCCCn1nc(C(=O)NC(C)(C)CO)c(N)c1C(C)(C)C", "satisfied"),
    ("CCCCCn1nc(C(=O)NC23CC4CC(CC(O)(C4)C2)C3)cc1C(C)(C)C", "not satisfied"),
    ("CC(C)(CO)NC(=O)c1cc(C(C)(C)C)n(-c2ccccn2)n1", "not satisfied"),
    ("CCCCCn1nc(C(C)(C)C)cc1C(=O)NC12CC3CC(CC(C3)C1)C2", "not satisfied"),
    ("CCCCCn1nc(C(=O)NC2CCCCC2)cc1C(C)(C)C", "satisfied"),
]

Attention now turns to another entry.
Task item: Criterion: EC50 strictly below 2 µM. Is it met by "COCCn1nc(C(=O)NC(C)(C)CO)cc1C(C)(C)C" ?
Reply: not satisfied

Provenance of the data: ChEMBL document CHEMBL4765487
